Provenance of the data: paper PMC4323687

- assay: Pharmacokinetics and brain distribution after single administration
- Type: in vivo, C57/BL6 mice
- cond: C57/BL6, mouse, in vivo, iv, 10 mg/kg
recorded-metric: Kp

# return recorded Kp for input Oc1c(Cl)cc(Cl)c(Cl)c1Cc1c(O)c(Cl)cc(Cl)c1Cl
0.5

---

Give pIC50 for every item shown.
- target-of-assay: Aβ42 seeding-mediated fibril growth (Homo sapiens, UniProt P05067)
- assay: Aβ42 seeding polymerization assay
Scale explanation: pIC50 corresponds to minus log10 of a concentration expressed in moles per litre.

Supply reported pIC50 belonging to this compound: Oc1c(Cl)cc(Cl)cc1Sc1cc(Cl)cc(Cl)c1O [bithionol]
5.27

Please look at this compound and report its pIC50: Oc1c(Cl)cc(Cl)c(Cl)c1Cc1c(O)c(Cl)cc(Cl)c1Cl [hexachlorophene]
5.23

Using known records, supply pIC50 for O=C1c2c(O)ccc(O)c2C(=O)c2c(NCCNCCO)ccc(NCCNCCO)c21 [mitoxantrone]
5.77

---

- target-of-assay: monomeric Aβ42 (Homo sapiens, UniProt P05067)
- Sequence (P05067 672-713 limits assumed): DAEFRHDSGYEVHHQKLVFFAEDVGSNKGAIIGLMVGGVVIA
- assay: Fibrillization of monomeric Aβ42
recorded-metric: IC50 (µM)
Answer in µM, number only, no unit symbol.

For Oc1c(Cl)cc(Cl)cc1Sc1cc(Cl)cc(Cl)c1O , write its IC50.
5.1

Given the compound O=C1c2c(O)ccc(O)c2C(=O)c2c(NCCNCCO)ccc(NCCNCCO)c21 , write its reported IC50.
2.5

Please indicate IC50 recorded for Oc1c(Cl)cc(Cl)c(Cl)c1Cc1c(O)c(Cl)cc(Cl)c1Cl
5

---

- assay: Pharmacokinetics and brain distribution after single administration
- Format: in vivo, C57/BL6 mice
- cond: C57/BL6, mouse, plasma, iv, 10 mg/kg
recorded-metric: half-life (h)
Please reply with the bare figure in h and do not write the unit itself.

Provide only the value of recorded half-life for Oc1c(Cl)cc(Cl)cc1Sc1cc(Cl)cc(Cl)c1O
7.62
